system under test: human Tie-2 (Homo sapiens)
Construct: human Tie-2 intra-cellular domain (aa775-1124) was generated through PCR
Sequence (Q02763 775-1124): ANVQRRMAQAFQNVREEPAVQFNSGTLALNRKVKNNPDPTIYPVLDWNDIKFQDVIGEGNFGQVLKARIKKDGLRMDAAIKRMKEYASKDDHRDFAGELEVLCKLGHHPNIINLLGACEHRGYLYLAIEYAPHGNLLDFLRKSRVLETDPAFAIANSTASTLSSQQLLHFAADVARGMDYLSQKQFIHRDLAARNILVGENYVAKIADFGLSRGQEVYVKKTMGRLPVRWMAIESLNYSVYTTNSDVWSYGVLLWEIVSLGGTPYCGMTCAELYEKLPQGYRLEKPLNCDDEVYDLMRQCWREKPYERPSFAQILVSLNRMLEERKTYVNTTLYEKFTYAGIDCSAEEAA
method summary: ELISA tyrosine kinase assay, TIE2
pIC50: −log10 of the molar value.
measured quantity: pIC50

{"molecule": "c1ccc2c(c1)SCc1c(-c3ccncc3)n[nH]c1-2 [Compound III]", "result": "< 4.52"}
